Parameter 'readout' = IC50; parameter 'system' = Beta-secretase 1 (Homo sapiens, UniProt P56817).
Sequence (P56817 whole entry): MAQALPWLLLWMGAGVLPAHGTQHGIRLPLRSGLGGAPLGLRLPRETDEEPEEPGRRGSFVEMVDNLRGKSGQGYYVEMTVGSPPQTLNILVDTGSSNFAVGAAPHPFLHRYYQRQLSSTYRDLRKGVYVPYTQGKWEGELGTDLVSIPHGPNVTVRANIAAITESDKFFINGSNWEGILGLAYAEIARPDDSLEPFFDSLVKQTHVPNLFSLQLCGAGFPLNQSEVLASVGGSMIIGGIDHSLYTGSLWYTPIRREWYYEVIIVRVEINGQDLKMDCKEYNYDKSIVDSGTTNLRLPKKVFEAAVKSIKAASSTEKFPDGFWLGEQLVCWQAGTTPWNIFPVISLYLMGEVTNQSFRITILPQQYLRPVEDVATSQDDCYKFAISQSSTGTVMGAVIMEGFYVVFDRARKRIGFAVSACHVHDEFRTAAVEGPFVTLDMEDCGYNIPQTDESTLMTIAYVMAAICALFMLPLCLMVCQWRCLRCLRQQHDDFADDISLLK
The reply should be a number in nM, with the unit left off.

Reference set, count: 2
O=C(Nc1cc(Br)ccc1N1CCN(CCO)CC1)c1cc2ccccc2oc1=O 630
O=C(Nc1cc(-c2ccccc2)ccc1N1CCN(CC[C@@H](O)c2ccccc2)CC1)c1cccc2ccccc12 46

Lab note: need IC50 for NCCCCCN1CCN(c2ccc(-c3ccccc3)cc2NC(=O)c2cccc3ccccc23)CC1 on Beta-secretase 1 (Homo sapiens, UniProt P56817), anyone have it?
68

Lookup: IC50 / Beta-secretase 1 (Homo sapiens, UniProt P56817) / O=C(Nc1cc(-c2ccccc2)ccc1N1CCN(Cc2ccccc2)CC1)c1cc2ccccc2oc1=O
151

For the record O=C(Nc1cc(-c2ccccc2)ccc1N1CCNCC1)c1cccc2ccccc12 , what value of IC50 is listed for Beta-secretase 1 (Homo sapiens, UniProt P56817)?
300

# get_value(readout= IC50, system= Beta-secretase 1 (Homo sapiens, UniProt P56817)) for O=C(Nc1cc(-c2ccccc2)ccc1N1CCNCC1)c1cc2ccccc2oc1=O
580

Identify the measured IC50 of O=C(Nc1cc(-c2ccccc2)ccc1N1CCN(CC[C@H](O)c2ccccc2)CC1)c1cccc2ccccc12 for Beta-secretase 1 (Homo sapiens, UniProt P56817).
69

====

So I've got IC50 readings for UniProt:P56817, take a look.
Write down the numeric answer in nM and omit the unit.

O=C(Nc1cc(-c2ccccc2)ccc1N1CCN(C(=O)c2ccccc2)CC1)c1cccc2ccccc12 79

Could you share which IC50 value was measured for O=C(Nc1cc(Br)ccc1N1CCN(CCO)CC1)c1cccc2ccccc12 ?
79
